Every entry's value here was drawn from paper PMC5374206.

- System: E. coli ATCC 25922
- measurementProtocol: MIC tube-dilution assay
- Format: cell-based, Escherichia coli
- details: E. coli ATCC29522 (head); highest concentration used 200 μM

[
  {
    "compound": "COc1ccc(C2C=C(c3ccccc3)N=c3sc(=Cc4ccc(-c5cccc(C(=O)O)c5)o4)c(=O)n32)cc1 (stereo not shown)",
    "testedOn": "E. coli ATCC 25922",
    "MIC": ">200 µM"
  },
  {
    "compound": "CCOC(=O)C1=C(c2ccccc2)N=c2sc(=Cc3ccc(-c4ccc(C(=O)O)cc4)o3)c(=O)n2C1c1ccc(F)cc1 (stereo not shown)",
    "testedOn": "E. coli ATCC 25922",
    "MIC": ">200 µM"
  },
  {
    "compound": "CCOC(=O)C1=C(c2ccccc2)N=c2sc(=Cc3ccc(-c4ccc(C(=O)O)cc4)o3)c(=O)n2C1c1ccc(Cl)cc1 (stereo not shown)",
    "testedOn": "E. coli ATCC 25922",
    "MIC": ">200 µM"
  },
  {
    "compound": "CCOC(=O)C1=C(c2ccccc2)N=c2sc(=Cc3ccc(-c4cccc(C(=O)O)c4)o3)c(=O)n2C1c1ccc(Cl)cc1 (stereo not shown)",
    "testedOn": "E. coli ATCC 25922",
    "MIC": ">200 µM"
  }
]

----------
- testedOn: YycG′ protein (Staphylococcus epidermidis)
- Construct: made in house; host or cells: E. coli BL21(DE3)
- Sequence (Q5HK19 384-602 limits assumed): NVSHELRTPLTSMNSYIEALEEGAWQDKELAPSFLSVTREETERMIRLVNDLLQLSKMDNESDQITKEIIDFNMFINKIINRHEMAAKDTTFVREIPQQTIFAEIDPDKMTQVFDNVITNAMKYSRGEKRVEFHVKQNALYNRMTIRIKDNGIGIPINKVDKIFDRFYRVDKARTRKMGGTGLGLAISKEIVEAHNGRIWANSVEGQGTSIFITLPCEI
- measurementProtocol: Inhibition of YycG′ autophosphorylation (Kinase-Glo Luminescent Kinase Assay)
- Assay type: biochemical
- details: 100 μM derivative; 2 μg YycG′ protein; 4 μM ATP
readoutName: inhibition of the enzymatic activity of YycG′ protein (%)

[
  {
    "molecule": "O=C(O)c1cccc(-c2ccc(C=c3sc4n(c3=O)C(c3ccc(Cl)cc3)C=C(c3ccccc3)N=4)o2)c1 (stereo not shown) [H5-25]",
    "reportedMeasurement": 51.42
  },
  {
    "molecule": "CCOC(=O)C1=C(c2ccccc2)N=c2sc(=Cc3ccc(-c4ccc(C(=O)O)cc4)o3)c(=O)n2C1c1ccc(Cl)cc1 (stereo not shown) [H5-34]",
    "reportedMeasurement": 80.72
  },
  {
    "molecule": "CCOC(=O)C1=C(c2ccccc2)N=c2sc(=Cc3ccc(-c4ccc(C(=O)O)cc4)o3)c(=O)n2C1c1ccc(F)cc1 (stereo not shown) [H5-35]",
    "reportedMeasurement": 63.94
  },
  {
    "molecule": "CCOC(=O)C1=C(c2ccccc2)N=c2sc(=Cc3ccc(-c4cccc(C(=O)O)c4)o3)c(=O)n2C1c1ccc(Cl)cc1 (stereo not shown) [H5-23]",
    "reportedMeasurement": 64.78
  },
  {
    "molecule": "CCOC(=O)C1=C(c2ccccc2)N=c2sc(=Cc3ccc(-c4cccc(C(=O)O)c4)o3)c(=O)n2C1c1ccc(F)cc1 (stereo not shown) [H5-32]",
    "reportedMeasurement": 55.61
  },
  {
    "molecule": "COc1ccc(C2C=C(c3ccccc3)N=c3sc(=Cc4ccc(-c5cccc(C(=O)O)c5)o4)c(=O)n32)cc1 (stereo not shown) [H5-24]",
    "reportedMeasurement": 49.92
  },
  {
    "molecule": "O=C(O)c1cccc(-c2ccc(C=c3sc4n(c3=O)C(c3ccc(F)cc3)C=C(c3ccccc3)N=4)o2)c1 (stereo not shown) [H5-33]",
    "reportedMeasurement": 77.04
  }
]

----------
- measurementProtocol: Erythrocyte hemolysis assay
- Format: cell-based
- details: human, erythrocytes (5% suspension), at 200 μM, 37°C
Items are presented alongside their recorded hemolysis at 1 h, 200 µM.
readoutName: hemolysis at 1 h, 200 µM (%)

[
  {
    "compound": "COc1ccc(C2C=C(c3ccccc3)N=c3sc(=Cc4ccc(-c5cccc(C(=O)O)c5)o4)c(=O)n32)cc1 (centres unmarked)",
    "units": "%",
    "reportedMeasurement": 0.32
  },
  {
    "compound": "CCOC(=O)C1=C(c2ccccc2)N=c2sc(=Cc3ccc(-c4ccc(C(=O)O)cc4)o3)c(=O)n2C1c1ccc(Cl)cc1 (centres unmarked)",
    "units": "%",
    "reportedMeasurement": 0.19
  },
  {
    "compound": "CCOC(=O)C1=C(c2ccccc2)N=c2s/c(=C\\c3ccc(-c4cccc(C(=O)O)c4)o3)c(=O)n2C1c1ccc2c(c1)OCO2 (centres unmarked)",
    "units": "%",
    "reportedMeasurement": 0.51
  },
  {
    "compound": "CCOC(=O)C1=C(c2ccccc2)N=c2sc(=Cc3ccc(-c4ccc(C(=O)O)cc4)o3)c(=O)n2C1c1ccc(F)cc1 (centres unmarked)",
    "units": "%",
    "reportedMeasurement": 0.27
  },
  {
    "compound": "O=C(O)c1cccc(-c2ccc(C=c3sc4n(c3=O)C(c3ccc(Cl)cc3)C=C(c3ccccc3)N=4)o2)c1 (centres unmarked)",
    "units": "%",
    "reportedMeasurement": 0.39
  },
  {
    "compound": "O=C(O)c1cccc(-c2ccc(C=c3sc4n(c3=O)C(c3ccc(F)cc3)C=C(c3ccccc3)N=4)o2)c1 (centres unmarked)",
    "units": "%",
    "reportedMeasurement": 0.32
  },
  {
    "compound": "CCOC(=O)C1=C(c2ccccc2)N=c2sc(=Cc3ccc(-c4cccc(C(=O)O)c4)o3)c(=O)n2C1c1ccc(F)cc1 (centres unmarked)",
    "units": "%",
    "reportedMeasurement": 0.24
  },
  {
    "compound": "CCOC(=O)C1=C(c2ccccc2)N=c2sc(=Cc3ccc(-c4cccc(C(=O)O)c4)o3)c(=O)n2C1c1ccc(Cl)cc1 (centres unmarked)",
    "units": "%",
    "reportedMeasurement": 0.27
  }
]

----------
- measurementProtocol: Erythrocyte hemolysis assay
- Type: cell-based
- details: human, erythrocytes (5% suspension), at MIC (against S epidermidis ATCC 35984), 37°C
Items are presented alongside their recorded hemolysis at 1 h.
readoutName: hemolysis at 1 h (%)

[
  {
    "compound": "COc1ccc(C2C=C(c3ccccc3)N=c3sc(=Cc4ccc(-c5cccc(C(=O)O)c5)o4)c(=O)n32)cc1 (centres unmarked)",
    "units": "%",
    "reportedMeasurement": 0.17
  },
  {
    "compound": "CCOC(=O)C1=C(c2ccccc2)N=c2sc(=Cc3ccc(-c4cccc(C(=O)O)c4)o3)c(=O)n2C1c1ccc(Cl)cc1 (centres unmarked)",
    "units": "%",
    "reportedMeasurement": 0.27
  },
  {
    "compound": "CCOC(=O)C1=C(c2ccccc2)N=c2sc(=Cc3ccc(-c4ccc(C(=O)O)cc4)o3)c(=O)n2C1c1ccc(F)cc1 (centres unmarked)",
    "units": "%",
    "reportedMeasurement": 0.17
  },
  {
    "compound": "CCOC(=O)C1=C(c2ccccc2)N=c2sc(=Cc3ccc(-c4cccc(C(=O)O)c4)o3)c(=O)n2C1c1ccc(F)cc1 (centres unmarked)",
    "units": "%",
    "reportedMeasurement": 0.15
  },
  {
    "compound": "CCOC(=O)C1=C(c2ccccc2)N=c2sc(=Cc3ccc(-c4ccc(C(=O)O)cc4)o3)c(=O)n2C1c1ccc(Cl)cc1 (centres unmarked)",
    "units": "%",
    "reportedMeasurement": 0.22
  },
  {
    "compound": "O=C(O)c1cccc(-c2ccc(C=c3sc4n(c3=O)C(c3ccc(F)cc3)C=C(c3ccccc3)N=4)o2)c1 (centres unmarked)",
    "units": "%",
    "reportedMeasurement": 0.15
  },
  {
    "compound": "O=C(O)c1cccc(-c2ccc(C=c3sc4n(c3=O)C(c3ccc(Cl)cc3)C=C(c3ccccc3)N=4)o2)c1 (centres unmarked)",
    "units": "%",
    "reportedMeasurement": 0.27
  },
  {
    "compound": "CCOC(=O)C1=C(c2ccccc2)N=c2s/c(=C\\c3ccc(-c4cccc(C(=O)O)c4)o3)c(=O)n2C1c1ccc2c(c1)OCO2 (centres unmarked)",
    "units": "%",
    "reportedMeasurement": 0.31
  }
]

----------
The reader will find MIC measurements below, all made with S. epidermidis ATCC 12228.

[
  {
    "molecule": "CCOC(=O)C1=C(c2ccccc2)N=c2sc(=Cc3ccc(-c4ccc(C(=O)O)cc4)o3)c(=O)n2C1c1ccc(F)cc1 (stereo not shown)",
    "units": "µM",
    "MIC": 3.13
  },
  {
    "molecule": "COc1ccc(C2C=C(c3ccccc3)N=c3sc(=Cc4ccc(-c5cccc(C(=O)O)c5)o4)c(=O)n32)cc1 (stereo not shown)",
    "units": "µM",
    "MIC": 1.56
  },
  {
    "molecule": "CCOC(=O)C1=C(c2ccccc2)N=c2s/c(=C\\c3ccc(-c4cccc(C(=O)O)c4)o3)c(=O)n2C1c1ccc2c(c1)OCO2 (stereo not shown)",
    "units": "µM",
    "MIC": 6.25
  },
  {
    "molecule": "CCOC(=O)C1=C(c2ccccc2)N=c2sc(=Cc3ccc(-c4ccc(C(=O)O)cc4)o3)c(=O)n2C1c1ccc(Cl)cc1 (stereo not shown)",
    "units": "µM",
    "MIC": 3.13
  }
]
